target: RORγt (Homo sapiens, UniProt P51449)
Sequence (P51449 1-497 isoform P51449-2, species assumed): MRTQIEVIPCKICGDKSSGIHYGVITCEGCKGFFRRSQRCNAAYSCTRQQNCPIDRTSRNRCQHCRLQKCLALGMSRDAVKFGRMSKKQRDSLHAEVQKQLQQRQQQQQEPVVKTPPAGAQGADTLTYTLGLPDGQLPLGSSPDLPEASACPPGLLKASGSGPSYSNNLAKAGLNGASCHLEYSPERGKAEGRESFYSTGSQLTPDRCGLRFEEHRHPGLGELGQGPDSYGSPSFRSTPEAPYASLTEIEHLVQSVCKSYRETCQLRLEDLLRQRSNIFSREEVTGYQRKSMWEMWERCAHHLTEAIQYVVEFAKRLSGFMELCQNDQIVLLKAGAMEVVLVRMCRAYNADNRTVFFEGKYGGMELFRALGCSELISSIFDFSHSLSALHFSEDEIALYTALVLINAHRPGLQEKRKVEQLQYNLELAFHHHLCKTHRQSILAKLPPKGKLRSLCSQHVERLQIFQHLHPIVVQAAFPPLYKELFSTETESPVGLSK
test: Jurkat reporter test (human IL-17 ROR response element luciferase reporter, RORγt vector)
Format: cell-based
condition_parameters: test compound 3 μM; Jurkat cells; read-out: luminescence level inhibitory rate (%) at test compound 3 μM
Where a name gives a salt, the structure may show the parent alone.
In this section, each of the molecules is paired with its reported inhibition at 3 µM.
Hi! Could you send only the number? It should be in %, unit omitted.

Here's what some known entries look like.
molecule	inhibition at 3 µM [%]
COc1ccc(C(=O)N[C@@H]2CCCN(C(=O)Nc3ccc4c(c3)c(=O)n(CC3CC3)c(=O)n4C(C)C)C2)cc1	104
CC(C)n1c(=O)n(CC2CC2)c(=O)c2cc(NC(=O)N3CCNC(C(=O)Nc4ccc(C#N)c(F)c4)C3)ccc21 (stereo not drawn) [Example 92, hydrochloride]	103

input: Input CC(C)n1c(=O)n(CC2CCCO2)c(=O)c2cc(NC(=O)N3CCO[C@@H](C(=O)Nc4ccc(C#N)c(Cl)c4)C3)c(F)cc21 (stereo partly drawn) , output reported inhibition at 3 µM.
output: 106

input: Consider the molecule CC(C)n1c(=O)n(CC2CC2)c(=O)c2cc(NC(=O)N3CCC[C@@H](N4Cc5ccc(Cl)cc5C4=O)C3)c(F)cc21 and give its recorded inhibition at 3 µM.
output: 106

input: In one line, give reported inhibition at 3 µM of the entry CC(C)n1c(=O)n(CC2CC2)c(=O)c2cc(NC(=O)N3CCO[C@@H](C(=O)Nc4cc(Cl)c(C#N)cc4F)C3)c(F)cc21 .
output: 107

input: For CC(C)n1c(=O)n(CC2CC2)c(=O)c2cc(NC(=O)N3CCC[C@@H](NC(=O)c4ccc(C#N)cc4)C3)ccc21 , write its inhibition at 3 µM.
output: 103

----------
target: RORγt (Homo sapiens, UniProt P51449)
test: Jurkat reporter test (human IL-17 ROR response element luciferase reporter, RORγt vector)
Assay type: cell-based
condition_parameters: test compound 3 μM; Jurkat cells; read-out: luminescence level inhibitory rate (%) at test compound 3 μM
assay_endpoint: inhibition at 3 µM (%)
All answers are understood in %, so give the number only.

compound	inhibition at 3 µM [%]
CC(C)n1c(=O)n(CC2CC2)c(=O)c2cc(NC(=O)N3CCO[C@@H](C(=O)Nc4cnc(C#N)c(Cl)c4)C3)ccc21 [Example 122]	103
Cc1cc(C(=O)N[C@@H]2CCCN(C(=O)Nc3ccc4c(c3)c(=O)n(CC3CC3)c(=O)n4C(C)C)C2)ccc1C#N [Example 249]	103
COC(=O)N1Cc2ccc(C(=O)N[C@@H]3CCCN(C(=O)Nc4cc5c(=O)n(CC6CC6)c(=O)n(C(C)C)c5cc4F)C3)cc2C1 [Example 343]	108
CC(C)n1c(=O)n(CC2CC2)c(=O)c2cc(NC(=O)N3CCC[C@@H](NC(=O)c4cccc(Cl)c4)C3)ccc21 [Example 248]	104
CC(C)n1c(=O)n(CC2CC2)c(=O)c2cc(NC(=O)N3CCC[C@@H](NC(=O)c4ccc(C#N)nc4)C3)ccc21 [Example 223]	102
CC(C)n1c(=O)n(CC2CC2)c(=O)c2cc(NC(=O)N3CCOC(C(=O)Nc4cc(F)c(C#N)cc4F)C3)ccc21 (stereo not shown) [Example 135]	99
CC(C)n1c(=O)n(CC2CC2)c(=O)c2cc(NC(=O)N3CCC[C@@H](NC(=O)c4ccc(CNC(=O)OC(C)(C)C)cc4)C3)c(F)cc21 [Example 319]	103
CC(C)n1c(=O)n(CC2CC(F)(F)C2)c(=O)c2cc(NC(=O)N3CCO[C@@H](C(=O)Nc4ccc(C#N)c(Cl)c4)C3)c(F)cc21 [Example 350]	107

input: Please look at this compound and report its inhibition at 3 µM: COc1ccc2c(c1)C(=O)N([C@@H]1CCCN(C(=O)Nc3cc4c(=O)n(CC5CC5)c(=O)n(C(C)C)c4cc3F)C1)C2 [Example 303]
output: 102

input: Determine its reported inhibition at 3 µM: CC(C)n1c(=O)n(CC2CC2)c(=O)c2cc(NC(=O)N3CCC[C@@H](NC(=O)c4cc(Cl)ccc4F)C3)c(F)cc21 [Example 282]
output: 102

input: Identify measured inhibition at 3 µM corresponding to CCNC(=O)OCc1ccc(C(=O)N[C@@H]2CCCN(C(=O)Nc3cc4c(=O)n(CC5CC5)c(=O)n(C(C)C)c4cc3F)C2)cc1 [Example 315]
output: 108

input: Dear colleague, please send me the reported inhibition at 3 µM for CC(C)n1c(=O)n(CC2CC2(F)F)c(=O)c2cc(NC(=O)N3CCCC(n4cnc5cc(C#N)ccc5c4=O)C3)c(F)cc21 (single isomer, unassigned) [Example 367] when you can.
output: 110

input: Determine its reported inhibition at 3 µM: CC(C)n1c(=O)n(CC2CC2)c(=O)c2cc(NC(=O)[C@@H]3CCC[C@@H]3NC(=O)c3ccc(C#N)cc3)ccc21 [Example 264]
output: 102
